Target: UniProtKB Q9NR97
Sequence (Q9NR97 27-1041): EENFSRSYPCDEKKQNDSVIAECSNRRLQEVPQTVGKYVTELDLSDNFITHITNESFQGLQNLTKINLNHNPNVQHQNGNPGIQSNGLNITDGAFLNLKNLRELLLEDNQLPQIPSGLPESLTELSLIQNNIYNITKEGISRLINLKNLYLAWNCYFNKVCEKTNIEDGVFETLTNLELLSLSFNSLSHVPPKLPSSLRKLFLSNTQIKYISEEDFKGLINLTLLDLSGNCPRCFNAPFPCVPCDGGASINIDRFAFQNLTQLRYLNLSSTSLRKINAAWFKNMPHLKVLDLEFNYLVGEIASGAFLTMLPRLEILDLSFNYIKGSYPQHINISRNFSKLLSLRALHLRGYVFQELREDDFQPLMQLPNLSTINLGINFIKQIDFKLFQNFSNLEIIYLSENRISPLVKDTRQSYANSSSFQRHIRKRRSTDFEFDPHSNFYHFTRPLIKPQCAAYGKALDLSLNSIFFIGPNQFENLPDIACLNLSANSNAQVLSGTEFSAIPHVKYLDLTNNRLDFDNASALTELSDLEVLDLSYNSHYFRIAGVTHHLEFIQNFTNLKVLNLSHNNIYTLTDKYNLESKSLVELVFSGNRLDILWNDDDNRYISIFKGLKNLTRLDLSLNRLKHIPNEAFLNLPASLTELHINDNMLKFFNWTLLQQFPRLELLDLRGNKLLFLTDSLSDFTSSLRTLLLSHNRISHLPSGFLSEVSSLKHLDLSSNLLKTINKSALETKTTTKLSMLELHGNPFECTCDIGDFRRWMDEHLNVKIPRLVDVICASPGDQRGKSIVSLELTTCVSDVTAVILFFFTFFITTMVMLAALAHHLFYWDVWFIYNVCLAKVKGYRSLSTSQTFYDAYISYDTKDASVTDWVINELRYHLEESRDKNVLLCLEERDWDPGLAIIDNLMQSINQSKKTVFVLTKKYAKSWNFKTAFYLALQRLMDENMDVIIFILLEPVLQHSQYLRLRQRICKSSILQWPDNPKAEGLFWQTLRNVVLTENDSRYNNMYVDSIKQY
Assay: TLR8 EC50 assay
Format: cell-based
Conditions: Table 2
result type: EC50

Some compounds with recorded EC50:
Give the measured EC50 of Nc1nc2cc(N3CCNC3=O)ccc2c2[nH]c(CCCO)nc12 [Compound 115] .
> 100 µM

Same lookup for Nc1nc2cc(-c3ccccc3)ccc2c2[nH]c(C3CCNCC3)nc12 [Compound 222] , please.
> 100 µM

Same lookup for Nc1nc2cc(-c3ccccc3)ccc2c2[nH]c(CCCO)nc12 [Compound 145] , please.
> 100 µM

Same lookup for Nc1nc2cc(N3CCCC3=O)ccc2c2[nH]c(CCCO)nc12 [Compound 183] , please.
> 100 µM

Same lookup for Cn1c(CCCO)nc2c(N)nc3cc(-n4cccn4)ccc3c21 [Compound 108] , please.
> 100 µM

Next, consider the following compound.
Give the measured EC50 of N#Cc1cccc(-c2ccc3c(c2)nc(N)c2nc(CCCO)[nH]c23)c1 [Compound 207] .
> 100 µM

---

Molecular target: hNLRP3 (Homo sapiens, UniProt Q96P20)
Construct: THP-1 cells were purchased from the American Type Culture Collection; host or cells: THP-1 cells, PMA-differentiated
Sequence (Q96P20 whole entry): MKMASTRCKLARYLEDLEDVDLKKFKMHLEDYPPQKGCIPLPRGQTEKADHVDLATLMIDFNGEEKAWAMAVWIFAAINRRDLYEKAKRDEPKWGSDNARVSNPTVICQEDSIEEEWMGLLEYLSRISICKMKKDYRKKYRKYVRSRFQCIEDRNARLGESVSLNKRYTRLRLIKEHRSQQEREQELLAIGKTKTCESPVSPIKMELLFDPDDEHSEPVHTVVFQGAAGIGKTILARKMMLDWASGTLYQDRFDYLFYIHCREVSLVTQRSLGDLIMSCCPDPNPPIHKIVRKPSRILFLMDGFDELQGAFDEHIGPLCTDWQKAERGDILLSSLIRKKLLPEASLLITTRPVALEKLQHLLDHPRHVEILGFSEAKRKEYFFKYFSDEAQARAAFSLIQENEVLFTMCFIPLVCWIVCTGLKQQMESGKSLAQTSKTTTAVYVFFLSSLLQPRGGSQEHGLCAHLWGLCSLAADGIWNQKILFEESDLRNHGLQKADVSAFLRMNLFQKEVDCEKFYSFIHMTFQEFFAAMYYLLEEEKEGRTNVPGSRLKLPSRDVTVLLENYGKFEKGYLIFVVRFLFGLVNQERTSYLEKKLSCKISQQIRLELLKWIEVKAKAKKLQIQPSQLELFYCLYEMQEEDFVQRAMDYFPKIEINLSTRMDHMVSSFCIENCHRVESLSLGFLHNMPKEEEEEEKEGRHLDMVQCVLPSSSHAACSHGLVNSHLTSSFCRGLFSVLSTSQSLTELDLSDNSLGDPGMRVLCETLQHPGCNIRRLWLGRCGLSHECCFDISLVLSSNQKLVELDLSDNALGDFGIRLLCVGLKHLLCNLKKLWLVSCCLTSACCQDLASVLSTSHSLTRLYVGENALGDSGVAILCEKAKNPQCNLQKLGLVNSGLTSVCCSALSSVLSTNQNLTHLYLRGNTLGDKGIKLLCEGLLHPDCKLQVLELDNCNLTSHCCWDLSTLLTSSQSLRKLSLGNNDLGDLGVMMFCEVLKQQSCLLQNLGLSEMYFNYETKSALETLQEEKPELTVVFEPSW
Test: hNLRP3 agonist assay: IL-1β production in PMA-differentiated THP-1 cells (ELISA)
Format: cell-based
Conditions: Table 2, 4 hours, IL-1β by ELISA
pEC50: −log10 of the molar value.
# pEC50 per record follows

Some molecules with recorded pEC50:
Give the measured pEC50 of Nc1nc2cc(N3CCCC3)ccc2c2[nH]c(CCCO)nc12 [Compound 166] .
< 4.00

Same lookup for CC(C)(C)OC(=O)N1CCC(c2nc3c(N)nc4cc(Br)ccc4c3[nH]2)CC1 [Compound 225] , please.
4.70 to 6.00

Same lookup for Cn1c(CCCO)nc2c3ccc(-n4cccn4)cc3nc(N)c21 [Compound 113] , please.
4.70 to 6.00

More entries:
Give the measured pEC50 of Cc1ncccc1-c1ccc2c(c1)nc(N)c1nc(CCCO)[nH]c12 [Compound 214] .
< 4.00

Same lookup for Cc1ncc(-c2ccc3c(c2)nc(N)c2nc(CCCO)[nH]c23)cn1 [Compound 155] , please.
4.70 to 6.00

Same lookup for Nc1nc2cc(-c3cccc(=O)[nH]3)ccc2c2[nH]c(CCCO)nc12 [Compound 239] , please.
4.70 to 6.00

Same lookup for Nc1nc2cc(-n3cccn3)ccc2c2[nH]c(CN3CC4COCC4C3)nc12 (stereo not drawn) [Compound 109] , please.
≥ 6.00

Same lookup for Nc1nc2cc(-c3cccs3)ccc2c2[nH]c(CCCO)nc12 [Compound 187] , please.
≥ 6.00

Same lookup for CS(=O)(=O)N1CCC(c2nc3c(N)nc4cc(-n5cccn5)ccc4c3[nH]2)CC1 [Compound 114] , please.
4.70 to 6.00

Same lookup for CN1CCC(c2nc3c(N)nc4ccccc4c3[nH]2)CC1 [Compound 228] , please.
4.00 to 4.70

Same lookup for COc1ccc2c(c1)nc(N)c1nc(CCCO)[nH]c12 [Compound 124] , please.
4.70 to 6.00

Same lookup for Nc1nc2cc(NC(=O)c3ccccc3)ccc2c2[nH]c(CCCO)nc12 [Compound 180] , please.
< 4.00

Same lookup for Nc1nc2cc(C3CCCC3)ccc2c2[nH]c(CCCO)nc12 [Compound 161] , please.
≥ 6.00

Same lookup for Cn1nccc1-c1ccc2c(c1)nc(N)c1nc(CCCO)[nH]c12 [Compound 190] , please.
4.00 to 4.70

Same lookup for Nc1nc2cc(-c3ccccn3)ccc2c2[nH]c(CCCO)nc12 [Compound 185] , please.
≥ 6.00

Same lookup for CC(C)(C)OC(=O)N1CCC(c2nc3c(N)nc4cc(-c5ccccc5)ccc4c3[nH]2)CC1 [Compound 219] , please.
≥ 6.00

Same lookup for Nc1nc2cc(N3CCCC3=O)ccc2c2[nH]c(CCCO)nc12 [Compound 183] , please.
4.00 to 4.70

Same lookup for Nc1nc2cc(-c3ccccc3)ccc2c2[nH]c(C3CCNCC3)nc12 [Compound 222] , please.
4.70 to 6.00

Attribution: patent US11072612B2
